# TARGET OF ASSAY: GST-Bcl-xL (Homo sapiens (Human))
# Sequence (Q07817 whole entry): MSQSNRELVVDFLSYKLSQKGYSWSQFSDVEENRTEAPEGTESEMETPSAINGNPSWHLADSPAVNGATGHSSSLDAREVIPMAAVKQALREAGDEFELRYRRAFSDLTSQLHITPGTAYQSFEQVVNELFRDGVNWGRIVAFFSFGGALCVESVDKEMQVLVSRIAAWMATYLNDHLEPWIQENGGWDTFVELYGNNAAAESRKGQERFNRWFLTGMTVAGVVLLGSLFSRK
pKi: −log10 of the molar value.
Assign Fulfilled to entries whose pKi meets or exceeds 8; assign Not fulfilled to the rest.

Lookup: Check if pKi >= 8 (inclusive). Item: "CN(C)CCCNc1ccc(S(=O)(=O)NC(=O)c2nc(N3CCc4cccc(C(=O)Nc5nc6ccccc6s5)c4C3)ccc2CCCc2ccccc2)cc1S(=O)(=O)C(F)(F)F"
Found: Not fulfilled

Lookup: Check if pKi >= 8 (inclusive). Item: "CN(C)CC[C@H](CSc1ccccc1)Nc1ccc(S(=O)(=O)NC(=O)c2csc(N3CCc4cccc(C(=O)Nc5nc6ccccc6s5)c4C3)n2)cc1[N+](=O)[O-]"
Found: Fulfilled

Lookup: Check if pKi >= 8 (inclusive). Item: "CN(C)CC[C@H](CSc1ccccc1)Nc1ccc(S(=O)(=O)NC(=O)c2csc(N3CCc4cccc(C(=O)Nc5nc6ccccc6s5)c4C3)n2)cc1S(=O)(=O)C(F)(F)F"
Found: Fulfilled

Lookup: Check if pKi >= 8 (inclusive). Item: "CN(C)CCCNc1ccc(S(=O)(=O)NC(=O)c2nc(N3CCc4cccc(C(=O)Nc5nc6ccccc6s5)c4C3)sc2CCc2ccccc2)cc1[N+](=O)[O-]"
Found: Fulfilled

Lookup: Check if pKi >= 8 (inclusive). Item: "CN(C)CCCNc1ccc(S(=O)(=O)NC(=O)c2nc(N3CCc4cccc(C(=O)Nc5nc6ccccc6s5)c4C3)sc2Cc2ccccc2)cc1[N+](=O)[O-]"
Found: Not fulfilled

Lookup: Check if pKi >= 8 (inclusive). Item: "O=C(NS(=O)(=O)c1ccc(N[C@H](CCN2CCOCC2)CSc2ccccc2)c([N+](=O)[O-])c1)c1csc(N2CCc3cccc(C(=O)Nc4nc5ccccc5s4)c3C2)n1"
Found: Fulfilled

Lookup: Check if pKi >= 8 (inclusive). Item: "CN(C)CCCNc1ccc(S(=O)(=O)NC(=O)c2nc(N3CCc4cccc(C(=O)Nc5nc6ccccc6s5)c4C3)sc2CCc2ccccc2)cc1S(=O)(=O)C(F)(F)F"
Found: Fulfilled

Lookup: Check if pKi >= 8 (inclusive). Item: "CN(C)CCCNc1ccc(S(=O)(=O)NC(=O)c2csc(N3CCc4cccc(C(=O)Nc5nc6ccccc6s5)c4C3)n2)cc1S(=O)(=O)C(F)(F)F"
Found: Fulfilled

###

Target or system GST-Bcl-xL (Homo sapiens (Human), UniProt Q07817): recorded Ki listed per item.
Your answer is read as nM, so omit the unit and give the number.

Lookup: Ki lookup needed for "O=C(NS(=O)(=O)c1ccc(N[C@H](CCO)CSc2ccccc2)c(S(=O)(=O)C(F)(F)F)c1)c1csc(N2CCc3cccc(C(=O)Nc4nc5ccccc5s4)c3C2)n1" , thanks.
Found: 0.2

Lookup: Ki lookup needed for "CN(C)CCCNc1ccc(S(=O)(=O)NC(=O)c2nc(N3CCc4cccc(C(=O)Nc5nc6ccccc6s5)c4C3)ccc2CCCc2ccccc2)cc1[N+](=O)[O-]" , thanks.
Found: 9

Lookup: Ki lookup needed for "O=C(NS(=O)(=O)c1ccc(N[C@H](CCN2CCOCC2)CSc2ccccc2)c(S(=O)(=O)C(F)(F)F)c1)c1csc(N2CCc3cccc(C(=O)Nc4nc5ccccc5s4)c3C2)n1" , thanks.
Found: 0.1

Lookup: Ki lookup needed for "CN(C)CCCNc1ccc(S(=O)(=O)NC(=O)c2nc(N3CCc4cccc(C(=O)Nc5nc6ccccc6s5)c4C3)sc2CCCc2ccccc2)cc1[N+](=O)[O-]" , thanks.
Found: 5
